// data source = paper PMC10508264

- assay.info: Shake flask n-octanol/deionized water partition (lipophilicity)
- Type: physicochemical
Assign Net pH to each entry below.
Note: the reply should be a number with no unit written.

Specify reported Net pH for the compound shown: [Mn+2].[O-]c1ccccc1N=Cc1ccc(N2CCOCC2)cc1.[O-]c1ccccc1N=Cc1ccc(N2CCOCC2)cc1.c1ccc(-c2ccccn2)nc1 [(1)] 3.48

Note Net pH for the compound shown: [Ni+2].[O-]c1ccccc1N=Cc1ccc(N2CCOCC2)cc1.[O-]c1ccccc1N=Cc1ccc(N2CCOCC2)cc1.c1ccc(-c2ccccn2)nc1 [(3)] 4.76

Please supply the value of reported Net pH for the item [Co+2].[O-]c1ccccc1N=Cc1ccc(N2CCOCC2)cc1.[O-]c1ccccc1N=Cc1ccc(N2CCOCC2)cc1.c1ccc(-c2ccccn2)nc1 [(2)] 4.38

Please give the documented Net pH of Oc1ccccc1N=Cc1ccc(N2CCOCC2)cc1 [(HL), 2-(4-morpholinobenzylideneamino)phenol] 3.35
